Biological target: Mitogen-activated protein kinase kinase kinase 3 (Homo sapiens)
Sequence (Q99759 whole entry): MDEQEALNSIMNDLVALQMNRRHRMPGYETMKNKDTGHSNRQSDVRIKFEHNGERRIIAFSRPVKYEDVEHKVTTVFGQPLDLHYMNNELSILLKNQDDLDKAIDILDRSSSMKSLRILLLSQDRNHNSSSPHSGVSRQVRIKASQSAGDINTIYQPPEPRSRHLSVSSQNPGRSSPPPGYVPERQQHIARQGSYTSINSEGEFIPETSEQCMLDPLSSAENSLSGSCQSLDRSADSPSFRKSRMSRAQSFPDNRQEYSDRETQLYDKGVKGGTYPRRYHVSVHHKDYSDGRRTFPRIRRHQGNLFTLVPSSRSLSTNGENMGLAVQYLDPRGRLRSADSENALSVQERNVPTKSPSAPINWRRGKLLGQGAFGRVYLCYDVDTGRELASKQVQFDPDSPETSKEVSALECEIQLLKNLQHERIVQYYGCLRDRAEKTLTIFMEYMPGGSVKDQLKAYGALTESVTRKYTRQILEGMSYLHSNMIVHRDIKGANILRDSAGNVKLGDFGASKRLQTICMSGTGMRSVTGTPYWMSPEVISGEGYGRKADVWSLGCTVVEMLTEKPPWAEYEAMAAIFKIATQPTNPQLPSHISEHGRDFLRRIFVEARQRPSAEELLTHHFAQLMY
Assay: Inhibition of MAP3K3 (unknown origin) in presence of ATP by enzymatic assay
metricName: pIC50
One number for each entry, as −log10 of the molar value.

Request: Hi! What's the reported pIC50 for CN1C(=O)c2sccc2N(C)c2nc(Nc3ccc(S(N)(=O)=O)cc3)ncc21 on Mitogen-activated protein kinase kinase kinase 3 (Homo sapiens)?
Response: 7.42
